System: Shigella flexneri
test protocol: growth AUC normalised to DMSO control (fraction of control); higher = less growth inhibition, active = hit call of the paper
measurement parameters: 20 µM
Where a name gives a salt, the structure may show the parent alone.
measured metric: growth AUC normalised to DMSO control

compound	growth AUC normalised to DMSO control
CN(C)CCCO[C@@H]1[C@H]2OC(C)(C)O[C@H]2O[C@@H]1[C@H](O)CO [Amiprilose hydrochloride]	1 (inactive)
N[C@@H](C(=O)N[C@@H]1C(=O)N2C(C(=O)O)=C(Cl)CS[C@H]12)c1ccccc1 [Cefaclor hydrate]	0.153 (active)
CCCN(CCC)S(=O)(=O)c1ccc(C(=O)O)cc1	1.03 (inactive)
O=C1C(CC[S+]([O-])c2ccccc2)C(=O)N(c2ccccc2)N1c1ccccc1 (stereo not given)	1 (inactive)
Cc1cc2cc3c(C)cc(=O)oc3c(C)c2o1	1.03 (inactive)
CCCCC(C)(O)C/C=C/[C@H]1[C@H](O)CC(=O)[C@@H]1CCCCCCC(=O)OC (mixture of isomers)	1.01 (inactive)

The measured growth AUC normalised to DMSO control associated with CN1CCCN=C1/C=C/c1cccc(O)c1 [Oxantel pamoate] reads 1.02 (inactive)

The measured growth AUC normalised to DMSO control associated with "C[C@@H]1[C@H](O)[C@@H](C)/C=C/C=C/C=C/C=C/C=C/C=C/C=C/[C@H](O[C@@H]2O[C@H](C)[C@@H](O)[C@H](N)[C@@H]2O)C[C@@H]2O[C@](O)(C[C@@H](O)C[C@@H](O)[C@H](O)CC[C@@H](O)C[C@@H](O)CC(=O)O[C@H]1C)C[C@H](O)[C@H]2C(=O)O" reads 1.1 (inactive)

The measured growth AUC normalised to DMSO control associated with CC(=O)N(CC(C)C(=O)O)c1c(I)cc(I)c(N)c1I (stereo not given) reads 0.948 (inactive)

The measured growth AUC normalised to DMSO control associated with "C[C@]12CC[C@@H]3c4ccc(O)cc4CC[C@H]3[C@@H]1CC[C@@H]2O" reads 1.01 (inactive)

The measured growth AUC normalised to DMSO control associated with C#CCN(C)CCCOc1ccc(Cl)cc1Cl [Clorgyline hydrochloride] reads 0.955 (inactive)

The measured growth AUC normalised to DMSO control associated with OCC(O)CN1CCN(c2ccccc2)CC1 (stereo not given) reads 1.06 (inactive)

The measured growth AUC normalised to DMSO control associated with CC(N)CCCC(C)(C)O (stereo not given) [Heptaminol hydrochloride] reads 0.999 (inactive)

The measured growth AUC normalised to DMSO control associated with "C[C@]12C[C@H](O)[C@H]3[C@@H](CCC4=CC(=O)CC[C@@]43C)[C@@H]1CC[C@@H]2C(=O)CO" reads 0.978 (inactive)

The measured growth AUC normalised to DMSO control associated with CCCNC(=O)NS(=O)(=O)c1ccc(Cl)cc1 [Chlorpropamide] reads 1.02 (inactive)

---

Tested on: S. enterica typhimurium WT
test protocol: growth AUC normalised to DMSO control (median) (fraction of control); higher = less growth inhibition, active = hit call of the paper
measurement parameters: 20 µM
Structures can show the parent of a compound that is named as a salt.
measured metric: growth AUC normalised to DMSO control
Could you respond with only the numeric value?

Fill in: S. enterica typhimurium WT growth AUC normalised to DMSO control for CC(C)(Oc1ccc(CCNC(=O)c2ccc(Cl)cc2)cc1)C(=O)O [Bezafibrate] = 0.998

Fill in: S. enterica typhimurium WT growth AUC normalised to DMSO control for "CCOC(=O)C1=C[C@]2(CC)CCCN3CCc4c(n1c1ccccc41)[C@@H]32" = 1

Fill in: S. enterica typhimurium WT growth AUC normalised to DMSO control for Cc1c(Cl)cccc1Nc1ncccc1C(=O)O [Clonixin lysinate] = 1.02

Fill in: S. enterica typhimurium WT growth AUC normalised to DMSO control for C[N+](C)(C)CCCCCC[N+](C)(C)C [Hexamethonium dibromide dihydrate] = 0.99

Fill in: S. enterica typhimurium WT growth AUC normalised to DMSO control for C[C@H](N)[C@H](O)c1cccc(O)c1 [Metaraminol bitartrate] = 0.994

Fill in: S. enterica typhimurium WT growth AUC normalised to DMSO control for CN(N=O)C(=O)N[C@H]1C(O)O[C@H](CO)[C@@H](O)[C@@H]1O (mixture of isomers) = 0.725

Fill in: S. enterica typhimurium WT growth AUC normalised to DMSO control for "CCCNC(C)(C)C(=O)Nc1ccccc1C" = 1

Fill in: S. enterica typhimurium WT growth AUC normalised to DMSO control for CCN(CC)C(=O)N1CCN(C)CC1 [Diethylcarbamazine citrate] = 0.999

Fill in: S. enterica typhimurium WT growth AUC normalised to DMSO control for "C1N2CN3CN1CN(C2)C3" = 1

Fill in: S. enterica typhimurium WT growth AUC normalised to DMSO control for CN1C2CCCC1CC(NC(=O)c1nn(C)c3ccccc13)C2 (stereo not drawn) = 0.982

Fill in: S. enterica typhimurium WT growth AUC normalised to DMSO control for "C[C@H]1COc2c(N3CCN(C)CC3)c(F)cc3c(=O)c(C(=O)O)cn1c23" = 0.00504

Fill in: S. enterica typhimurium WT growth AUC normalised to DMSO control for OC(CCN1CCCCC1)(c1ccccc1)C1CCCCC1 (stereo not drawn) [Trihexyphenidyl-D,L hydrochloride] = 1.01

---

Test system: S. enterica typhimurium tolC KO
test protocol: growth AUC normalised to DMSO control (median) (fraction of control); higher = less growth inhibition, active = hit call of the paper
measurement parameters: 20 µM
# reported growth AUC normalised to DMSO control; entries follow
Could you respond with only the numeric value?

Would you please look over these solved cases?
>>> df
                                   compound  recorded_measurement
0  CC(=O)Oc1cccc2c1C(=O)c1c(OC(C)=O)cc(C(=O)O)cc1C2=O [Diacerein]                  0.38
1  CC(NN)c1ccccc1 (stereo not given) [Mebanazine]                  0.99
2  CC(C)NC[C@H](O)COc1ccc(CC(N)=O)cc1 [(S,-) Atenolol]                 0.989
3  Cc1ccccc1N1C(=O)c2cc(S(N)(=O)=O)c(Cl)cc2NC1C (stereo not given) [Metolazone]                 0.997

Fill in: S. enterica typhimurium tolC KO growth AUC normalised to DMSO control for CC(=O)N[C@@H](CC(C)C)C(=O)O [N-Acetyl-L-leucine] = 0.996

---

System: Yersinia pseudotuberculosis
test protocol: growth AUC normalised to DMSO control (fraction of control); higher = less growth inhibition, active = hit call of the paper
measurement parameters: 20 µM
Structures can show the parent of a compound that is named as a salt.
measured metric: growth AUC normalised to DMSO control
Could you respond with only the numeric value?

>>> print(df.to_string())
                                   compound                        measured_metric  recorded_measurement
0  CC/C(=C(/CC)c1ccc(O)cc1)c1ccc(O)cc1 [Diethylstilbestrol]  growth AUC normalised to DMSO control                 0.973
1  CC[C@@]1(O)C(=O)OCc2c1cc1n(c2=O)Cc2cc3c(CN(C)C)c(O)ccc3nc2-1 [Topotecan]  growth AUC normalised to DMSO control                  1.02

The measured growth AUC normalised to DMSO control associated with Cc1ccnc(NS(=O)(=O)c2ccc(N)cc2)n1 [Sulfamerazine] reads 1.01

The measured growth AUC normalised to DMSO control associated with CC(=O)CC(c1ccc([N+](=O)[O-])cc1)c1c(O)c2ccccc2oc1=O (centres undefined) [Acenocoumarol] reads 0.991

The measured growth AUC normalised to DMSO control associated with COc1cc(C)nc(-n2nc(C)cc2OC)n1 [Epirizole] reads 0.992

The measured growth AUC normalised to DMSO control associated with Cc1ncc([N+](=O)[O-])n1CC(C)O (centres undefined) [Secnidazole] reads 1

The measured growth AUC normalised to DMSO control associated with C=CCSCC1Nc2cc(Cl)c(S(N)(=O)=O)cc2S(=O)(=O)N1 (centres undefined) [Althiazide] reads 0.985

The measured growth AUC normalised to DMSO control associated with CCCCOc1cc(C(=O)OCCN(CC)CC)ccc1N [Benoxinate hydrochloride] reads 0.992

The measured growth AUC normalised to DMSO control associated with CNCCC=C1c2ccccc2C=Cc2ccccc21 [Norcyclobenzaprine] reads 0.996

---

Test system: Shigella flexneri
test protocol: growth AUC normalised to DMSO control (fraction of control); higher = less growth inhibition, active = hit call of the paper
measurement parameters: 20 µM
Where a name gives a salt, the structure may show the parent alone.
# reported growth AUC normalised to DMSO control; entries follow
Could you respond with only the numeric value?

Would you please look over these solved cases?
>>> df
                                   compound                        measured_metric  recorded_measurement
0  CCN(CC)CCNC(C(=O)OCCC(C)C)c1ccccc1 (centres undefined) [Camylofine chlorhydrate]  growth AUC normalised to DMSO control                 0.991
1  CN(C)CCOC(c1ccccc1)c1ccccc1.Cn1c(=O)c2[nH]c(Cl)nc2n(C)c1=O [Dimenhydrinate]  growth AUC normalised to DMSO control                 0.984
2  CCC1(c2ccccc2)NC(=O)N(C)C1=O (centres undefined)  growth AUC normalised to DMSO control                 0.997
3                  N=c1nc(N2CCCCC2)cc(N)n1O  growth AUC normalised to DMSO control                  1.03
4  COc1ccc2c(c1)c(CC(=O)OCC(=O)O)c(C)n2C(=O)c1ccc(Cl)cc1  growth AUC normalised to DMSO control                 0.965
5  CN(Cc1ccc(C(C)(C)C)cc1)Cc1cccc2ccccc12 [Butenafine hydrochloride]  growth AUC normalised to DMSO control                 0.968
6  C#C[C@]1(O)CC[C@H]2[C@@H]3CCC4=CC(=O)CC[C@@H]4[C@H]3CC[C@@]21C  growth AUC normalised to DMSO control                 0.977
7  COC(=O)C1=C(C)NC(C)=C(C(=O)OC)C1c1ccccc1[N+](=O)[O-]  growth AUC normalised to DMSO control                 0.997

# evaluate next
The measured growth AUC normalised to DMSO control associated with CCN(CC)CCNC(=O)c1cc(S(C)(=O)=O)ccc1OC [Tiapride hydrochloride] reads 0.992

Value source: the supplement of paper PMC12350171
